target: EGFR (h) (Homo sapiens (Human)); experiment: Kinase assay, single dose inhibition (Millipore, 33P-ATP filter binding); format: biochemical; settings: 0.1 μM test compound, 10 μM ATP; remaining activity relative to DMSO control = 100%
Sequence (P00533 25-1210): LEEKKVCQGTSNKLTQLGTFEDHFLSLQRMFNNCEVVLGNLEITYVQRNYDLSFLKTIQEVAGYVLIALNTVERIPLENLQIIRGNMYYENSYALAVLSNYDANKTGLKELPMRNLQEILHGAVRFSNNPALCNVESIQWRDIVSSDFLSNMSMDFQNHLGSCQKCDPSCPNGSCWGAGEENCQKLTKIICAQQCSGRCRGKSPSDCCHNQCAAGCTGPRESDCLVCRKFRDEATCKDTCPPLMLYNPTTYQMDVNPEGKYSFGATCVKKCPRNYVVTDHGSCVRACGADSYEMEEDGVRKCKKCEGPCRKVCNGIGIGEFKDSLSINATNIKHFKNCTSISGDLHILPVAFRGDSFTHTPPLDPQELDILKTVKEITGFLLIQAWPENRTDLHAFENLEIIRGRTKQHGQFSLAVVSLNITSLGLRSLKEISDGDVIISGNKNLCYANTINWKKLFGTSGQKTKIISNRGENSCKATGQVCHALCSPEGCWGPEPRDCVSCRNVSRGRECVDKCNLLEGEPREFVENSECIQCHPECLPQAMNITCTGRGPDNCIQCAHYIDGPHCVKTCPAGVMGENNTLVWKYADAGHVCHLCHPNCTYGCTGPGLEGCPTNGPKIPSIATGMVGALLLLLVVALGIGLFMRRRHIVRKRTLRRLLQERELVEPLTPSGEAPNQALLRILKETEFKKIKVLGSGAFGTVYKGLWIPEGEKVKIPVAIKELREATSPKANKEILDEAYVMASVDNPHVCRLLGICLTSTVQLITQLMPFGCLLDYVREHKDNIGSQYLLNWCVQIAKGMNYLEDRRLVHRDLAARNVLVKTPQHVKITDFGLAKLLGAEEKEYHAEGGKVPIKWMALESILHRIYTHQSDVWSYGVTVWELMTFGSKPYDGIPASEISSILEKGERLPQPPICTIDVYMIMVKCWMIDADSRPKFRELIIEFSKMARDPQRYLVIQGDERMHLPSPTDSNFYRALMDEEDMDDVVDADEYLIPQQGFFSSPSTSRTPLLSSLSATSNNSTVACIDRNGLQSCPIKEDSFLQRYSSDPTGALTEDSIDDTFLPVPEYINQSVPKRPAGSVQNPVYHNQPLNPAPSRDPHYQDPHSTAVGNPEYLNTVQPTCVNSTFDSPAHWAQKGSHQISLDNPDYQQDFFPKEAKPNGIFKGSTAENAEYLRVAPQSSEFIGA
# Activity (control) % EGFR (h) values compiled below
Numbers only; they are read as %.

COMPOUND	TARGET_OR_TEST_SYSTEM	Activity (control) % EGFR (h) / %
C=C(CN(C)CCN(C)C)C(=O)Nc1ccc(OC)c(Nc2ncc(Cl)c(Nc3ccccc3C(=O)C(=O)N(C)C)n2)c1	EGFR (h) (Homo sapiens (Human))	93
COc1cc(N2CCN(C(C)=O)CC2)ccc1Nc1ncc(Cl)c(Nc2ccccc2C(=O)C(=O)N(C)C)n1	EGFR (h) (Homo sapiens (Human))	109

Recorded Activity (control) % EGFR (h) (compound C=CC(=O)Nc1ccc(OC)c(Nc2ncc(Cl)c(Nc3ccccc3C(=O)C(=O)N(C)C)n2)c1 ): 105

get_value(item= C=CC(=O)Nc1cc(Nc2ncc(Cl)c(Nc3ccccc3C(=O)C(=O)N(C)C)n2)ccc1OC , readout=Activity (control) % EGFR (h)) returns 118

* * *

Activity (control) % EGFR (L858R) (h) values, listed per item
target: EGFR (L858R) (h) (Homo sapiens (Human), UniProt P00533, L858R); assay: Kinase assay, single dose inhibition (Millipore, 33P-ATP filter binding); type: biochemical; conditions: 0.1 μM test compound, 10 μM ATP; remaining activity relative to DMSO control = 100%
Sequence (P00533 25-1210 L858R): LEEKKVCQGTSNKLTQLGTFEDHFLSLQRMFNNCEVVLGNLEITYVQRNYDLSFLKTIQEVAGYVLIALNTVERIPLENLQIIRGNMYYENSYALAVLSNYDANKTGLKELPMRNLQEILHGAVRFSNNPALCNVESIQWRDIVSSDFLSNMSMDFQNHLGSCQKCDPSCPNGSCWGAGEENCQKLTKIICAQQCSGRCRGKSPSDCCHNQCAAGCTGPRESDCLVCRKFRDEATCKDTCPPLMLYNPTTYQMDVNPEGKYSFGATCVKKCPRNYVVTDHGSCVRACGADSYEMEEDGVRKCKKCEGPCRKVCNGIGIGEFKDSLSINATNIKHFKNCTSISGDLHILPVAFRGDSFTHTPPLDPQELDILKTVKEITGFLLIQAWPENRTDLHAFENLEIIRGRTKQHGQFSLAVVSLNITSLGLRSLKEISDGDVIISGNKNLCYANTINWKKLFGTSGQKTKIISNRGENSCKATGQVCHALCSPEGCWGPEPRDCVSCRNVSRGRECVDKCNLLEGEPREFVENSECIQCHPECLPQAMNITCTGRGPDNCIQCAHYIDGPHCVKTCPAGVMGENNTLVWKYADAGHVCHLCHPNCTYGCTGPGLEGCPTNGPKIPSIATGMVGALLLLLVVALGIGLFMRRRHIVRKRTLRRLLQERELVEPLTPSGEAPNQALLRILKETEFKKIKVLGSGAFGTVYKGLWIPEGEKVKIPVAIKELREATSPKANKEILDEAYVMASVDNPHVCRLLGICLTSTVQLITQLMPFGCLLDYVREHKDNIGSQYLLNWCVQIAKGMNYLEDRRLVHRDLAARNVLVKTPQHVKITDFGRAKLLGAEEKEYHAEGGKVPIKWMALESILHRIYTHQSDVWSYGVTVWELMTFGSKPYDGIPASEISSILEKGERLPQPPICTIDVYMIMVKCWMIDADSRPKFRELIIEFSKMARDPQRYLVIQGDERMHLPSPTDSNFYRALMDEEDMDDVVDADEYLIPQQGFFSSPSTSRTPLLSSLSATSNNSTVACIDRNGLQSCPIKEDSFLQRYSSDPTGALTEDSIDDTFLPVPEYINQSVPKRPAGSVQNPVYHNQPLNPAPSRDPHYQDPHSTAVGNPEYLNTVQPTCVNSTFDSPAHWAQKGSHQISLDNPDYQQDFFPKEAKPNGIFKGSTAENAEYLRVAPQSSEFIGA
// return numeric value only (unit: %, not printed)

MOLECULE	UNITS_TEXT	Activity (control) % EGFR (L858R) (h)
C=C(CN(C)CCN(C)C)C(=O)Nc1cccc(Nc2ncc(Cl)c(Nc3ccccc3C(=O)C(=O)N(C)C)n2)c1 [Example 125]	%	54
COc1ccc(NC(=O)/C=C/CN(C)C)cc1Nc1ncc(Cl)c(Nc2ccccc2C(=O)C(=O)N(C)C)n1 [Example 80]	%	43
C=CC(=O)Nc1ccc(OC)c(Nc2ncc(Cl)c(Nc3ccccc3C(=O)C(=O)N3CCN(C)CC3)n2)c1 [Example 89]	%	10

Shift focus to the following entry.
Memo: C=C(CN1CCCCC1)C(=O)Nc1cc(Nc2ncc(Cl)c(Nc3ccccc3C(=O)C(=O)N(C)C)n2)ccc1N1CCOCC1 [Example 129] , reported Activity (control) % EGFR (L858R) (h): 75

* * *

tested on: HCC827 (EGFR Del) NSCLC cells; assay: Cell proliferation assay (MTS cell viability); assay type: cell-based; settings: Homo sapiens, 72 h; HCC827 cells, 3 days of exposure, MTS
MEASURED_METRIC: IC50 (nM)
Lab book: enter the figure in nM, no units written.

COc1cc(N2CCN(C)CC2)ccc1Nc1ncc(Cl)c(Nc2ccccc2C(=O)C(=O)N2CCOCC2)n1 2360
C=CC(=O)Nc1cc(Nc2ncc(Cl)c(Nc3ccccc3C(=O)C(=O)N(C)C)n2)c(F)cc1OC 1200

Now look at this one.
Form: molecule = C=CC(=O)Nc1cccc(Nc2ncc(C(F)(F)F)c(Nc3ccccc3C(=O)C(N)=O)n2)c1 ; IC50 = 530

* * *

# EGFR (ErbB1) (Homo sapiens (Human)): pIC50 values follow
# Sequence (P00533 25-1210): as the sequence (P00533 25-1210) above
The scale used: pIC50 is minus the common logarithm of the concentration in molar units.

Example cases with answers are listed next.
MOLECULE	MEASURED_METRIC	REPORTED_RESULT
C#Cc1cccc(Nc2ncnc3cc4c(cc23)OCCOCCOCCO4)c1 [Icotinib, reference compound]	pIC50	8.91
COc1cc(Nc2ncc(Cl)c(Nc3ccccc3C(=O)C(=O)N(C)C)n2)ccc1N1CCC(N(C)C)CC1	pIC50	7.11

For the next question, use this molecule.
C=CC(=O)Nc1ccc(OC)c(Nc2ncc(Cl)c(Nc3ccccc3C(=O)C(=O)N(C)C)n2)c1 tested on EGFR (ErbB1) (Homo sapiens (Human)) gave pIC50: 6.56
